target: Serine/threonine-protein kinase MRCK beta (Homo sapiens) (UniProt Q9Y5S2); conditions: at 1 µM;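 also: averaged inhibition values against MRCK beta, part of the GSK PKIS profiling dataset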
Sequence (Q9Y5S2 whole entry): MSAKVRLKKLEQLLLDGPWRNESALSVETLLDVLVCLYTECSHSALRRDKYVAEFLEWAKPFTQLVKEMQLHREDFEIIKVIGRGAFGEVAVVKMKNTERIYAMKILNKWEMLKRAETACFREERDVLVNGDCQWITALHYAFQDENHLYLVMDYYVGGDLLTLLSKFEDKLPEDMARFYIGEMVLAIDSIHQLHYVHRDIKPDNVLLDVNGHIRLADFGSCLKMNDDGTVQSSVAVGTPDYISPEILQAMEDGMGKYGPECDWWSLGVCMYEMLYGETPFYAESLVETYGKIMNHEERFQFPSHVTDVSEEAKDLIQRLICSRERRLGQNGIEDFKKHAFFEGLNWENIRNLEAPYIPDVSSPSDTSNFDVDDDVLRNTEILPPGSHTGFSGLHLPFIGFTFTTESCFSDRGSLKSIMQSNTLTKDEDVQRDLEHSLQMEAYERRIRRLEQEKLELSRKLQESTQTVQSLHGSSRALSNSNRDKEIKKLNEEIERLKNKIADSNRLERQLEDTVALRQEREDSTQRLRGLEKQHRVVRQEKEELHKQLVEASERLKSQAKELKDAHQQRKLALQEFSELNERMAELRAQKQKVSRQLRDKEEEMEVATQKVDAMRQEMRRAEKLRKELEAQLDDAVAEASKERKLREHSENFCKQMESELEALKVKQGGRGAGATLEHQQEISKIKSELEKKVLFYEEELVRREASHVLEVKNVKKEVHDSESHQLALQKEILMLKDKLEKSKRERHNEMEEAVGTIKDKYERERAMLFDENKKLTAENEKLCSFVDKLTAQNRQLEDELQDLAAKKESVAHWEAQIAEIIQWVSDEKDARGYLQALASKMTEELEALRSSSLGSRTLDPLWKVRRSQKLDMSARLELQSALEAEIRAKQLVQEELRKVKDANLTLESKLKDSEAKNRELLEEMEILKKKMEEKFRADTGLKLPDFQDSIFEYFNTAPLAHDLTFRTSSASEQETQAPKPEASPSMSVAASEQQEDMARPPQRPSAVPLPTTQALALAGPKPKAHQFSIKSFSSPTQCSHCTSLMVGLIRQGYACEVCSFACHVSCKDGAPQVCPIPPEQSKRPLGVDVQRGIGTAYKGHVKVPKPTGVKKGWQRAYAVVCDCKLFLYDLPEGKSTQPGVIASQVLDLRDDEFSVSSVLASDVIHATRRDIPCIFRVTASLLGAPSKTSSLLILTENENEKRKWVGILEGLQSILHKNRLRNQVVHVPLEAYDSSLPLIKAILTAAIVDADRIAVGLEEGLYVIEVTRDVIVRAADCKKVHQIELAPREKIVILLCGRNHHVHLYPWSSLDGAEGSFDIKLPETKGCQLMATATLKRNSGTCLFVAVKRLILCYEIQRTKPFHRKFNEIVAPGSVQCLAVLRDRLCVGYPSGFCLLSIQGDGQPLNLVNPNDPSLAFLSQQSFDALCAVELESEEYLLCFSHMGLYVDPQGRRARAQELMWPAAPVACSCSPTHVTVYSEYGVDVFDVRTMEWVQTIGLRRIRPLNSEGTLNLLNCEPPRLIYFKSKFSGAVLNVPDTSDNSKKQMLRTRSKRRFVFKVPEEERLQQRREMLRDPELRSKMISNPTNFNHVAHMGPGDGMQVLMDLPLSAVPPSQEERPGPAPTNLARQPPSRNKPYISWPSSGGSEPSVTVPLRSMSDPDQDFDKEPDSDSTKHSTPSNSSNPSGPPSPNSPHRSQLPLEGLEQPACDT
PROPERTY_NAME: inhibition (%)
Report the value in % with no unit label.

Write down inhibition measured for item COc1ccc(-c2ccncc2)cc1C(N)=O
2.83

Next:
Write down inhibition measured for item CCc1cccc(NC(=O)Nc2ccc(Oc3ccc4nc(NC(=O)OC)[nH]c4c3)cc2)c1
0.65

Write down inhibition measured for item Fc1cccc(COc2ccc(Nc3ncnc4sc(-c5cccs5)cc34)cc2Cl)c1
1.28

Write down inhibition measured for item COc1cc2ncn(-c3cc(O[C@H](C)c4ccccc4Cl)c(C(N)=O)s3)c2cc1OC
1.02

Write down inhibition measured for item c1cnn2ncc(-c3ccnc(Nc4ccc5c(c4)OCCO5)n3)c2c1
1.8

Write down inhibition measured for item COC(=O)Nc1nc2cc(Oc3cccc(NC(=O)Nc4cc(C(F)(F)F)ccc4F)c3)ccc2[nH]1
2.03

Write down inhibition measured for item CCn1c(-c2nonc2N)nc2c(C#CC(C)(C)O)nc(OC[C@@H](N)c3ccccc3)cc21
48.5

Write down inhibition measured for item O=C1Nc2ccc(C(=O)c3ccco3)cc2C1=Cc1cc(Cl)c(O)c(Cl)c1
1.6

Write down inhibition measured for item CN1CCC(C(=O)Nc2n[nH]c3nnc(-c4ccccc4)cc23)CC1
0.78

* * *

target: Serine/threonine-protein kinase D3 (Homo sapiens); conditions: at 0.1 µM;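 also: each value is the mean of inhibition readings, from a kinase profiling panel run on the GSK PKIS inhibitor collection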
PROPERTY_NAME: inhibition (%)
Report the value in % with no unit label.

A selection of reference data follows.
Write down inhibition measured for item CC1=C(C(=O)Nc2ccc3[nH]ncc3c2)C(c2ccc(F)cc2)NC(=O)N1 (stereo unspecified)
3.46

Write down inhibition measured for item CS(=O)(=O)Nc1ccc(N/C=C2\C(=O)Nc3ccccc32)cc1
-1.78

Next:
Write down inhibition measured for item CCn1c(-c2nonc2N)nc2c(C#CC(C)(C)O)nc(CN3CCCC3)cc21
1.31

Write down inhibition measured for item COc1cccc(-n2ncc3c(N/N=C/c4cccc(F)c4)ncnc32)c1
-0.44

Write down inhibition measured for item Cc1ccc(NC(=O)c2ccnc(N3CCCC3)c2)cc1-c1ccc(C(=O)NCC2CC2)cc1
3.21

Write down inhibition measured for item Cc1nn(C)c2cc(N(C)c3ccnc(Nc4cccc(S(N)(=O)=O)c4)n3)ccc12
2.9

Write down inhibition measured for item CCN1CCC(CC(=O)Nc2n[nH]c3nc(-c4cccs4)c(Br)cc23)CC1
-2.16

Write down inhibition measured for item CCn1c(-c2nonc2N)nc2ccncc21
0.84

Write down inhibition measured for item CC(=O)Nc1cccc(C#Cc2cncnc2Nc2ccc(OCc3cccc(F)c3)c(Cl)c2)n1
-1.15

Write down inhibition measured for item Nc1ncnc2occ(-c3ccc(NC(=O)Nc4cccc(C(F)(F)F)c4)cc3)c12
5.37

Write down inhibition measured for item COc1ccc(-c2ccncc2)cc1C(N)=O
5.67

* * *

target: Rho-associated protein kinase 2 (Homo sapiens) (UniProt O75116); settings: at 1 µM
Sequence (O75116 whole entry, looked up): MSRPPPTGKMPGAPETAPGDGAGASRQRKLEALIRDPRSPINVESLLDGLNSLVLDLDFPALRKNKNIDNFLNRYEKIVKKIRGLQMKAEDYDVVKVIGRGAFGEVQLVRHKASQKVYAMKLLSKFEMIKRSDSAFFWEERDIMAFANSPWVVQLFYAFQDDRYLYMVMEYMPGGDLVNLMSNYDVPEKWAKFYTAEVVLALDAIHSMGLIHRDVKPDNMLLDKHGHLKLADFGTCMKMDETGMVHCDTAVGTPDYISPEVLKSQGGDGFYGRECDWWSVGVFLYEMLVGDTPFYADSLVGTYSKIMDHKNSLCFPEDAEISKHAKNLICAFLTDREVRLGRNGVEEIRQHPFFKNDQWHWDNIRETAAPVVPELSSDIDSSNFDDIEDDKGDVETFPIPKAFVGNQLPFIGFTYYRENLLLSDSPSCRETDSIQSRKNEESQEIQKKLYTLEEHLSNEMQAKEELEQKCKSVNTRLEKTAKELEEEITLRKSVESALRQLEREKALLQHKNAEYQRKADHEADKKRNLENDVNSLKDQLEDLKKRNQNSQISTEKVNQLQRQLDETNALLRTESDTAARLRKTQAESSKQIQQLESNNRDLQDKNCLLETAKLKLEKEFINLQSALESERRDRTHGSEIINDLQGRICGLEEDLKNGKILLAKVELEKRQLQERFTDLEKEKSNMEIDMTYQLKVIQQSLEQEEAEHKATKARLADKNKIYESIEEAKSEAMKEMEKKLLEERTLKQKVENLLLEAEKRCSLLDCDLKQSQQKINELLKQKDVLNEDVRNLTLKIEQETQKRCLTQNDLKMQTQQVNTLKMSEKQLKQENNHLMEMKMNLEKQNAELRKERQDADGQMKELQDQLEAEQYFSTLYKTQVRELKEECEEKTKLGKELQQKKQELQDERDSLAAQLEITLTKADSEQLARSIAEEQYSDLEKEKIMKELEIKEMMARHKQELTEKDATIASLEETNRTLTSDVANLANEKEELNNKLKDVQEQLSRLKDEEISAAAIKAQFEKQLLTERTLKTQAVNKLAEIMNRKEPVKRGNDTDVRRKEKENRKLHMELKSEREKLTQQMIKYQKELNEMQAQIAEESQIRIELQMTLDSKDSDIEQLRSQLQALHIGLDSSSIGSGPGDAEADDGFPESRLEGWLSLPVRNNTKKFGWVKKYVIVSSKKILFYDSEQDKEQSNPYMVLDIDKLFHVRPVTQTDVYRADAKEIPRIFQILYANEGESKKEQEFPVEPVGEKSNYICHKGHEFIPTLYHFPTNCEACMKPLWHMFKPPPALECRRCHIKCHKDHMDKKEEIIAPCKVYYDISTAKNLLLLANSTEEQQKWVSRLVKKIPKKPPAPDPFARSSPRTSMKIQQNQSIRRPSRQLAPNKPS
Description: GSK_PKIS: ROCK2 mean inhibition at 1 uM [Nanosyn]
// reported inhibition for each item listed
Report the value in % with no unit label.

A selection of reference data follows.
Write down inhibition measured for item COc1cc2ncn(-c3cc(OCc4ccccc4Cl)c(C(N)=O)s3)c2cc1OC
2.11

Write down inhibition measured for item CNC(=O)c1cncc(/C=C/c2c(Cl)cccc2Cl)c1
1.93

Write down inhibition measured for item COc1cc2ncn(-c3cc(OCc4ccccc4C(F)(F)F)c(C(N)=O)s3)c2cc1OC
8.03

Next:
Write down inhibition measured for item CCn1c(-c2nonc2N)nc2c(N3CCCC3)nccc21
30.6

Write down inhibition measured for item CCn1c(-c2nonc2N)nc2cnc(Oc3cccc(NC(=O)c4ccc(OCCN5CCOCC5)cc4)c3)cc21
90.5

Write down inhibition measured for item [O-][S+]1CCN(Cc2ccc(-c3ccc4ncnc(Nc5ccc(OCc6ccccc6)c(F)c5)c4c3)o2)CC1
0.33

Write down inhibition measured for item NS(=O)(=O)c1cccc(-c2ccc3c(NC(=O)C4CC4)n[nH]c3c2)c1
2.48

Write down inhibition measured for item CC(=O)Nc1cccc(C#Cc2cncnc2Nc2ccc(OCc3cccc(F)c3)c(Cl)c2)n1
6.65

Write down inhibition measured for item CC1=C(C(=O)Nc2ccc3[nH]ncc3c2)C(c2ccc(Cl)c(Cl)c2)CC(=O)N1 (stereo not drawn)
89.9

Write down inhibition measured for item O=C1NC(=O)C(c2ccc(Cl)cc2)=C1Nc1ccc(Cl)c(C(=O)O)c1
-2.33

Write down inhibition measured for item COC(=O)Nc1nc2cc(Oc3cccc(NC(=O)Nc4cc(C(F)(F)F)ccc4F)c3)ccc2[nH]1
-0.89

Write down inhibition measured for item CCc1cccc(NC(=O)Nc2ccc(Oc3ccc4nc(NC(=O)OC)[nH]c4c3)cc2)c1
8.2

Write down inhibition measured for item COc1cc2c(cc1Nc1nc(N3CCc4ccccc43)c3cc[nH]c3n1)N(C(=O)CN(C)C)CC2
-1.46
